Listed molecules paired with reported Day 21 (RTV)
System: HCT-116 colon cancer xenografts
Experiment: Tumor growth inhibition of HCT-116 colon cancer xenografts in tumor-bearing nude mice (tumor volume, TGI %, RTV, T/C %)
Assay type: in vivo, Balb/c Nude mice
Settings: Day 21; G10-G16 groups; single IP 400 mg/kg; Mean±SEM

Record excerpt, results attached:
{"columns": ["molecule", "result"],
 "data": [
  ["O=C(COc1nc(Cl)c(Cl)cc1Cl)OCC1OC(n2cc(-c3cn(Cc4ccccc4)nn3)c(NC(=O)OCc3ccc([N+](=O)[O-])cc3)nc2=O)C(F)(F)C1O (stereo not drawn)", "26.98 ± 0.99"],
  ["CCCCOC(=O)Nc1nc(=O)n(C2OC(COC(=O)COc3nc(Cl)c(Cl)cc3Cl)C(O)C2(F)F)cc1Br (stereo not drawn)", "38.61 ± 9.84"]
]}

Entry CCCCOC(=O)Nc1nc(=O)n(C2OC(COC(=O)COc3nc(Cl)c(Cl)cc3Cl)C(O)C2(F)F)cc1I (stereo not drawn) : reported Day 21 (RTV) = ? 26.21 ± 3.72

For the molecule CCCCOC(=O)Nc1nc(=O)n([C@@H]2O[C@H](COC(=O)Cn3cnc([N+](=O)[O-])c3)C(O)C2(F)F)cc1I (stereo partly drawn) , what Day 21 (RTV) is on record? 32.69 ± 8.02

What Day 21 (RTV) value was documented for this molecule, CCCCOC(=O)Nc1nc(=O)n(C2OC(COC(=O)COc3nc(Cl)c(Cl)cc3Cl)C(O)C2(F)F)cc1-c1cn(Cc2ccccc2)nn1 (stereo not drawn) ? 15.35 ± 3.61

Day 21 (RTV) lookup needed for O=C(COc1nc(Cl)c(Cl)cc1Cl)OC[C@H]1O[C@@H](n2cc(Br)c(NC(=O)OCc3ccccc3)nc2=O)C(F)(F)C1O (stereo partly drawn) , thanks. 29.09 ± 6.00

====

Measured Weight of mice, Day 13 of individual entries
Settings: Day 13; G3-G9 groups; single IP dose; Mean±SEM
Express it in g; write the number only.

Worked cases, Weight of mice, Day 13 given:
{"columns": ["entry.smiles", "display.unit", "Weight of mice, Day 13"],
 "data": [
  ["CC(C)(C)OC(=O)Nc1ccn([C@@H]2O[C@H](COC(=O)Cn3cnc([N+](=O)[O-])c3)[C@@H](O)C2(F)F)c(=O)n1", "g", 22.05],
  ["CC(C)(C)OC(=O)Nc1ccn([C@@H]2O[C@H](CO)[C@@H](O)C2(F)F)c(=O)n1", "g", 21.75],
  ["CCCCOC(=O)Nc1nc(=O)n([C@@H]2O[C@H](CO)[C@@H](O)C2(F)F)cc1Br", "g", 20.80]
]}

Consider the compound shown here: O=C(Nc1nc(=O)n([C@@H]2O[C@H](CO)[C@@H](O)C2(F)F)cc1Br)OCc1ccccc1 What is its recorded Weight of mice, Day 13? 22.80

I have this compound here, O=C(Nc1ccn([C@@H]2O[C@H](CO)[C@@H](O)C2(F)F)c(=O)n1)OCc1ccc([N+](=O)[O-])cc1 , and I need its recorded Weight of mice, Day 13. 22.67

Can you share its Weight of mice, Day 13? I mean this compound: O=C(Nc1ccn([C@@H]2O[C@H](CO)[C@@H](O)C2(F)F)c(=O)n1)OCc1ccccc1 21.86
